Experiment: Cmax in nude BALB/c mouse at 50 mg/kg, po
Assay type: ADME, organism-based
Set-up: dose 50 mg/kg, route oral
Conditions: in vivo
attribute.measured: Cmax

Q) Give Cmax for CCCCc1nc2cc(/C=C/C(=O)NO)ccc2n1CCN(CC)CC.Cl.Cl
A) 6.1 µM

* * *

Test: Half life in mouse liver microsomes
Assay type: ADME, Microsome
Conditions: liver microsomes
attribute.measured: half-life (min)
Answers are plain numbers, in min.

Examples with answers:
| cpd.smiles | measured.result |
| --- | --- |
| CCN(CC)CCn1c(CCc2ccccc2)nc2cc(/C=C/C(=O)NO)ccc21 | 5 |
| O=C(/C=C/c1ccc2c(c1)nc(CCc1ccccc1)n2CCN1CCCC1)NO | 5 |

Continue with the next compound.
Q) Give the value of half-life reported for the following: CCCCCCc1nc2cc(/C=C/C(=O)NO)ccc2n1CCN(C)C.Cl.Cl
A) 16
